The origin of these recorded values is patent US20090012103A1.

# SYSTEM: wild-type human cardiac sodium channel, hNav1.5 (Homo sapiens, UniProt Q14524)
# Sequence (Q14524 whole entry): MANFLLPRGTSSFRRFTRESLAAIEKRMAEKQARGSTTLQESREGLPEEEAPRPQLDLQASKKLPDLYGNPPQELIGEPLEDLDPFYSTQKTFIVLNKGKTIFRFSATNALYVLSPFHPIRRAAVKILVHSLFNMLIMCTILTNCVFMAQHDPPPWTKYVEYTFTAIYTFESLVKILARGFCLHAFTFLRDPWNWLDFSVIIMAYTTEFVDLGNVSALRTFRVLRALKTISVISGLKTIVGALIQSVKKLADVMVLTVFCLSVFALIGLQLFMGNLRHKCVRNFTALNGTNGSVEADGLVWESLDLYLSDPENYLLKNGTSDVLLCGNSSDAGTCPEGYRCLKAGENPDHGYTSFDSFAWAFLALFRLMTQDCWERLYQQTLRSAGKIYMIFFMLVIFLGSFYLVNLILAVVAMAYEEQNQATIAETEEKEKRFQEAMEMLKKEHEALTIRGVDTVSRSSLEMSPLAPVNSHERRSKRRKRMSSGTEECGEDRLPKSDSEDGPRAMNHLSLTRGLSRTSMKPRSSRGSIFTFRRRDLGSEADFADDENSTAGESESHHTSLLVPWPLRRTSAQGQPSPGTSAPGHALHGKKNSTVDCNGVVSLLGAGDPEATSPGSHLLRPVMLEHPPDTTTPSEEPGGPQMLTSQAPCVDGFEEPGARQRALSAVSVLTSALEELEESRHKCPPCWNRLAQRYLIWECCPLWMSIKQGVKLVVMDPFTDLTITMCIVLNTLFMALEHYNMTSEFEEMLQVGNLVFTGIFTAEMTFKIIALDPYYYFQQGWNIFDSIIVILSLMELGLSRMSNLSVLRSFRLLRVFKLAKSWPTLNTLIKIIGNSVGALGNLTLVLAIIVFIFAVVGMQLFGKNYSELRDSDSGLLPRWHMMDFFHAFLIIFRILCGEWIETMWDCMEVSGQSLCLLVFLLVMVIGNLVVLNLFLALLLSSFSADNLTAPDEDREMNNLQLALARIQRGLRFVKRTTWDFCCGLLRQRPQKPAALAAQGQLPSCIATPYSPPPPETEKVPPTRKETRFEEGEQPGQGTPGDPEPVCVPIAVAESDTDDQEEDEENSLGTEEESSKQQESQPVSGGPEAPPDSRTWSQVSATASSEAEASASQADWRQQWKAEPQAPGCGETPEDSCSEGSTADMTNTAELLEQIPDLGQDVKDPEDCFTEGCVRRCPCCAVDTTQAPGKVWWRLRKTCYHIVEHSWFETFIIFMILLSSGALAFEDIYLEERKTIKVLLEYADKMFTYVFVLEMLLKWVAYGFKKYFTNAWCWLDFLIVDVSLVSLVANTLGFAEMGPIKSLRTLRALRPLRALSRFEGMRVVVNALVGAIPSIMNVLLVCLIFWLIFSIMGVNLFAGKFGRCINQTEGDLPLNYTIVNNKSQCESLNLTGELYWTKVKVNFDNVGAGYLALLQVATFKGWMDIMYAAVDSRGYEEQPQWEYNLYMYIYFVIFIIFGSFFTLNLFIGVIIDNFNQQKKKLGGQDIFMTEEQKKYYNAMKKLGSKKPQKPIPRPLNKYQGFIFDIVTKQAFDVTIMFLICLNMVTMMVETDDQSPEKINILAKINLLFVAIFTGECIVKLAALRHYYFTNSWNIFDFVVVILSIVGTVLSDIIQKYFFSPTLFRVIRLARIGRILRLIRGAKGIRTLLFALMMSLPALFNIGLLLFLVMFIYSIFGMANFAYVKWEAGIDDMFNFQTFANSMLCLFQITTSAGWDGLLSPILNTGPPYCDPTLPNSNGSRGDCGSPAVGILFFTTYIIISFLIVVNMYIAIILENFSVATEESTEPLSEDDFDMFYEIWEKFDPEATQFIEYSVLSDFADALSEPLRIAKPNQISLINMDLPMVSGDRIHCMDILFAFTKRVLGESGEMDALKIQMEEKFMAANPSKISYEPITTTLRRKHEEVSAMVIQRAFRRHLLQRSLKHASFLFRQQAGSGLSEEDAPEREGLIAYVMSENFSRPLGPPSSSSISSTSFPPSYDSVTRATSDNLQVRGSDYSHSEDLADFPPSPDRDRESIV
# ASSAY_PROTOCOL: Peak INa screening assay (tonic block TB and use-dependent block UDB of peak sodium current)
# Assay type: cell-based
# CONDITION_CONTEXT: tonic block; compound at 10 μM; read-out: Tonic Peak INa % blk
ENDPOINT_NAME: inhibition at 10 µM (%)
The reply should be a number in %, with the unit left off.

Example results:
COMPOUND | VALUE_REPORTED
CCOC(=O)C1=C(C)NC(C)=C(C(=O)OCC)C1c1ccc2c(c1)OCCO2 [PT-109] | 18.1
CCOC(=O)C1=C(C)Nc2nnnn2C1c1cccc(Oc2cccc(C(=O)OCC)c2)c1 (stereo not shown) [PT-494] | 6.7
CCOC(=O)C1=C(C)NC(C)=C(C(=O)OCC)C1c1ccccc1Br [PT-430] | 91

As a next step, examine the compound that follows.
Find the measured inhibition at 10 µM of CCOC(=O)[C@@H]1CCCN(c2cc(OC)ccc2C2C(C(=O)OCc3ccccc3)=C(C)Nc3nnnn32)C1 (stereo partly shown) [PT-373] and report it.
22.5

----------
# SYSTEM: wild-type human cardiac sodium channel, hNav1.5 (Homo sapiens, UniProt Q14524)
# ASSAY_PROTOCOL: Late INa screening assay (late sodium current, PatchXpress whole cell patch clamp)
# Format: cell-based
# CONDITION_CONTEXT: compound at 10 μM; read-out: Late INa % blk
Readings of inhibition at 10 µM for the listed molecules
Use % as the unit, but write only the number.

Below: 3 molecules and their reported inhibition at 10 µM.
MOLECULE | SYSTEM | VALUE_REPORTED
CC1=C(C(=O)OCc2ccccc2)C(c2sccc2-c2ccccc2)n2nnnc2N1 (stereo not drawn) [PT-352] | wild-type human cardiac sodium channel, hNav1.5 (Homo sapiens, UniProt Q14524) | 76.3
CC1=C(C(=O)NNC(=O)Cc2ccccc2)C(c2cccc3ccccc23)C2=C(CCCC2=O)N1 (stereo not drawn) [PT-266] | wild-type human cardiac sodium channel, hNav1.5 (Homo sapiens, UniProt Q14524) | 8.8
CCOC(=O)C1=C(C)Nc2[nH]ncc2C1c1cccs1 (stereo not drawn) [PT-473] | wild-type human cardiac sodium channel, hNav1.5 (Homo sapiens, UniProt Q14524) | 9.4

Read the entry CCOC(=O)C1=C(C)Nc2ccnn2C1c1c(Br)sc2ccccc12 (stereo not drawn) [PT-488] and write its reported inhibition at 10 µM.
82.3

Consider the molecule CC1=C(C(=O)OC(C)C)C(c2cccc3ccccc23)C2=C(CCCC2=O)N1 (stereo not drawn) [PT-158] and give its recorded inhibition at 10 µM.
38.7

Output measured inhibition at 10 µM for this item: COc1ccc(COC(=O)C2=C(C)NC(C)=C(C(=O)OCc3ccc(OC)c(OC)c3)C2c2ccc3ccccc3c2)cc1OC [PT-130]
15.7

----------
# SYSTEM: wild-type human cardiac sodium channel, hNav1.5 (Homo sapiens)
# ASSAY_PROTOCOL: Late INa screening assay (late sodium current, PatchXpress whole cell patch clamp)
# Assay type: cell-based
# CONDITION_CONTEXT: compound at 10 μM; read-out: Late INa % blk
Assign YES to entries whose inhibition at 10 µM meets or exceeds 50%; assign NO to the rest.

Study these solved cases before continuing.
MOLECULE | LABEL_CLASS
CC1=C(C(=O)OC2CCc3ccccc32)C(c2cccc3ccccc23)n2nnnc2N1 (stereo not drawn) [PT-062] | YES
CCOC(=O)C1=C(C)NC2=C(C(=O)CCC2)C1c1cccnc1Cl (stereo not drawn) [PT-189] | NO
CC1=C(C(=O)OCc2ccccc2)C(c2ccccc2-c2cccc(C)c2)n2nnnc2N1 (stereo not drawn) [PT-350] | YES

Does inhibition at 10 µM meet or surpass 50% for CC1=C(C(=O)OCc2ccccc2)[C@@H](c2ccccc2-c2cccc(F)c2)n2nnnc2N1 [PT-240] ?
YES

Identify whether the reported inhibition at 10 µM of the following molecule is 50% or greater: CC1=C(C(=O)OCc2ccccc2)C(c2cccc(-c3ccccc3)c2)n2nnnc2N1 (stereo not drawn) [PT-026]
NO

----------
# maps each entry to its hERG Patch Clamp hERG % blk
# SYSTEM: hERG potassium channel (Homo sapiens, UniProt Q12809)
# Sequence (Q12809 whole entry): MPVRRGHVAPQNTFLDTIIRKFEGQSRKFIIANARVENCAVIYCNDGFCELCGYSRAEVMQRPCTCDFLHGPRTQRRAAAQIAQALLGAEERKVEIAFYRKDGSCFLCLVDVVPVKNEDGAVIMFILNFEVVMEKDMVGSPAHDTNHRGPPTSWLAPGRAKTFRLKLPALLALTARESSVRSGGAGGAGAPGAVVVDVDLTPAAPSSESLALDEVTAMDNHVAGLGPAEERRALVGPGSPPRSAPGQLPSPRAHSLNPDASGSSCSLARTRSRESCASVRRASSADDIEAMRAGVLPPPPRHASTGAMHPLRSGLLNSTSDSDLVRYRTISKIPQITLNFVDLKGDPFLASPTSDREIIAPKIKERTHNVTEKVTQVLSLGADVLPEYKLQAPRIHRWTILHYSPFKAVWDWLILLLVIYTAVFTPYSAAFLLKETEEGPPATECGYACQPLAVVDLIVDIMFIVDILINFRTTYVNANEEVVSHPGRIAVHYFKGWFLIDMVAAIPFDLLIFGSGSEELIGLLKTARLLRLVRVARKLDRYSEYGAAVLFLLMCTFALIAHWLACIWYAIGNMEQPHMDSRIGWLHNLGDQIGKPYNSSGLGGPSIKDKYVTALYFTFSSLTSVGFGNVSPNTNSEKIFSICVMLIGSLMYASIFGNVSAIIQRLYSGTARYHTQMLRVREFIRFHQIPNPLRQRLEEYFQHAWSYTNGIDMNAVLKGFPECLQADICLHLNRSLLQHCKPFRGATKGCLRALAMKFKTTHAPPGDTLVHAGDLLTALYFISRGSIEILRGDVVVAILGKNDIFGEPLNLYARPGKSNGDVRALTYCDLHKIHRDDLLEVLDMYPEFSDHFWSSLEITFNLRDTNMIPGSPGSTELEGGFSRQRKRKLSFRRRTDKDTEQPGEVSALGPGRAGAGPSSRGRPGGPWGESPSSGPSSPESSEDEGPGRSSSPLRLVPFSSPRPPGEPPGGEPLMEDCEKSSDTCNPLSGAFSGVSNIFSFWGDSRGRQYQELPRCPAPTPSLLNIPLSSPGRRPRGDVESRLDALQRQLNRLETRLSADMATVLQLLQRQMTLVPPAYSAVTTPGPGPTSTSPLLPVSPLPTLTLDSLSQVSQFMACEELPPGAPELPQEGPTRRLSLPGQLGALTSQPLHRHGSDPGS
# ASSAY_PROTOCOL: hERG screening assay (PatchXpress patch clamp, CHO cell line)
# CONDITION_CONTEXT: 10 μM
Give just the numeric value; % need not be written.

MOLECULE | hERG Patch Clamp hERG % blk [%]
CC1=C(C(=O)OCc2ccccc2)C(c2nccs2)n2nccc2N1 (stereo not shown) | 19.5

Give me measured hERG Patch Clamp hERG % blk, please, for this molecule: CCOC(=O)C1=C(C)Nc2nnnn2C1c1sc2ccccc2c1C (stereo not shown)
36.5

Please give the documented hERG Patch Clamp hERG % blk of COc1cc(Cl)ccc1COC(=O)C1=C(C)Nc2nnnn2C1c1c(Cl)cccc1Cl (stereo not shown)
48.5

Report measured hERG Patch Clamp hERG % blk; entry is CC1=C(C(=O)OCc2ccccc2)C(c2occc2-c2ccc(F)cc2)n2nnnc2N1 (stereo not shown)
32.0

Supply recorded hERG Patch Clamp hERG % blk for CCCC1=C(C(=O)OCC)C(c2ccc(C(=O)O)cc2)C2=C(CC(C)(C)CC2=O)N1 (stereo not shown) here.
12.0

Give hERG Patch Clamp hERG % blk for CCOC(=O)C1=C(C)NC2=C(C(=O)CCC2)C1c1ccco1 (stereo not shown)
13.5

Provide only the value of recorded hERG Patch Clamp hERG % blk for N#CC1=C(N)OC2=C(C(=O)CC(c3ccccc3)C2)C1c1cccs1 (stereo not shown)
67.5

Supply reported hERG Patch Clamp hERG % blk belonging to this molecule: C=CCOC(=O)C1=C(C)Nc2nnnn2C1c1cccc2ccccc12 (stereo not shown)
41.0

Give hERG Patch Clamp hERG % blk for CCOC(=O)C1=C(C)NC(C)=C(C(=O)OCC)C1c1cc2ccccc2o1
55.0

----------
# SYSTEM: wild-type human cardiac sodium channel, hNav1.5 (Homo sapiens, UniProt Q14524)
# ASSAY_PROTOCOL: Peak INa screening assay (tonic block TB and use-dependent block UDB of peak sodium current)
# Assay type: cell-based
# CONDITION_CONTEXT: tonic block; compound at 10 μM; read-out: Tonic Peak INa % blk
Tag: yes if measured inhibition at 10 µM is not below 20%, no if it is.

Examples with answers:
COMPOUND | LABEL_CLASS
C=CCOC(=O)C1=C(C)Nc2nnnn2C1c1cccc2ccccc12 (stereo not shown) | no
CC1=C(C(=O)OCc2ccccc2)C(c2occc2-c2ccccc2)n2nnnc2N1 (stereo not shown) | yes
CC1=C(C(=O)OC(C)C)C(c2c(Br)sc3ccccc23)n2nnnc2N1 (stereo not shown) | yes
CC1=C(C(=O)OCc2ccccc2)[C@@H](c2ccccc2-c2ccc(C)o2)n2nnnc2N1 | yes
CC1=C(C(=O)OC(c2ccccc2)C2CC2)C(c2cccc3ccccc23)n2nnnc2N1 (stereo not shown) | no
CC1=C(C(=O)OC(C)C)C(c2c[nH]nc2-c2cccs2)C2=C(CC(C)(C)CC2=O)N1 (stereo not shown) | no

Dear colleague, could you confirm whether CC1=C(C(=O)O[C@@H](C)c2ccccc2)C(c2sc3ccccc3c2C)n2nccc2N1 (stereo partly shown) has inhibition at 10 µM at or above 20%?
yes

Tell me whether inhibition at 10 µM is at least 20% here: CC1=C(C(=O)OCc2ccccc2)C(c2ccccc2N2CCN(C)CC2)n2nnnc2N1 (stereo not shown)
yes

Does inhibition at 10 µM meet or surpass 20% for CCOC(=O)C1=C(C)Nc2nnnn2C1c1ccc2ccccc2c1 (stereo not shown) ?
no

Confirm if inhibition at 10 µM reported for the compound CC1=C(C(=O)OC(c2ccc(F)cc2)c2ccc(F)cc2)C(c2cccs2)n2nnnc2N1 (stereo not shown) is 20% or above.
no

Is the recorded value of inhibition at 10 µM equal to or greater than 20% for this compound? CC1=C(C(=O)OC2CCc3ccccc32)C(c2cccc3ccccc23)n2nnnc2N1 (stereo not shown)
no

State whether the measured inhibition at 10 µM reaches 20%, counting equality as reaching it, for N#CC1=C(N)OC2=C(C(=O)CCC2)C1c1ccc(Br)cc1 (stereo not shown)
no

Would you say COc1ccccc1COC(=O)C1=C(C)Nc2nnnn2C1c1c(C)cccc1C (stereo not shown) shows inhibition at 10 µM at minimum 20%?
no

----------
# SYSTEM: wild-type human cardiac sodium channel, hNav1.5 (Homo sapiens, UniProt Q14524)
# ASSAY_PROTOCOL: Peak INa screening assay (tonic block TB and use-dependent block UDB of peak sodium current)
# Type: cell-based
# CONDITION_CONTEXT: use-dependent block; compound at 10 μM; read-out: UDB Peak INa % blk
ENDPOINT_NAME: inhibition at 10 µM (%)
I only need the number, in %, no unit after it.

Some compounds with recorded inhibition at 10 µM:
COMPOUND | RESULT_UNIT | inhibition at 10 µM
CCOC(=O)C1=C(C)NC(C)=C(C(=O)OCC)C1c1ccccc1-c1ccc(NS(C)(=O)=O)cc1 | % | 1
CC1=C(C(=O)OCc2ccccc2)C(c2ccccc2N2CCN(S(C)(=O)=O)CC2)n2nnnc2N1 (stereo not shown) | % | 9
COc1cc(Cl)ccc1COC(=O)C1=C(C)Nc2nnnn2C1c1c(Cl)cccc1Cl (stereo not shown) | % | 9
CCOC(=O)C1=C(C)Nc2nnnn2C1c1cccc(OCc2cccc(C(=O)OC)c2)c1 (stereo not shown) | % | 11.6
COc1cc(Cl)ccc1COC(=O)C1=C(C)Nc2nnnn2C1c1c(C)cccc1C (stereo not shown) | % | 16.6
COc1cc([N+](=O)[O-])ccc1C1C(C(=O)OCc2ccccc2)=C(C)Nc2ccnn21 (stereo not shown) | % | 8

Now for the compound whose inhibition at 10 µM we want.
Respond only with inhibition at 10 µM recorded for CC1=C(C(=O)OCc2ccccc2)C(c2nccs2)c2cn[nH]c2N1 (stereo not shown)
13.5
